# Tested on: HEK-293T
# assayRemarks: Multiplex assay against HEK293T
# Assay type: toxicity, cell-based
# conditionInfo: human, 48 h, 10 µM, compound concentration 10 uM, replicate 2
quantity: Population Healthy Nuclei (%)
Form entry: value (%) — number only.

Guide cases for Population Healthy Nuclei (%), answers given:
{"compound": "N#Cc1cccc(C(=O)Nc2cc(-c3ccccc3)nn2-c2ccccc2)c1", "quantity": "Population Healthy Nuclei (%)", "measurementUnits": "%", "assayValue": 42}
{"compound": "CCCc1cc(C)[nH]c(=O)c1CNC(=O)c1cc(-c2ccc(N3CCN(C(C)C)CC3)nc2)cc2c1cnn2C(C)C", "quantity": "Population Healthy Nuclei (%)", "measurementUnits": "%", "assayValue": 31}
{"compound": "Cl.NC[C@@H]1O[C@H](C23CC4CC(CC(C4)C2)C3)Cc2c1ccc(O)c2O", "quantity": "Population Healthy Nuclei (%)", "measurementUnits": "%", "assayValue": 24}

Prompt line: Give the observed Population Healthy Nuclei (%) of Cc1c(Nc2ccc(S(=O)(=O)N3CCN(C)CC3)cc2F)nc2ccc(-c3cnn(C4CC4)c3)cn2c1=O for HEK-293T.
Response line: 61

Prompt line: Give the observed Population Healthy Nuclei (%) of CC(C)C[C@H](NC(=O)[C@H](Cc1ccccc1)NC(=O)CNC(=O)CNC(=O)[C@@H](N)Cc1ccc(O)cc1)C(=O)O for HEK-293T.
Response line: 85
